tested on: SF-539 CNS; assay: NCI-60 one-dose screen, 48 h (100 = growth as untreated, 0 = no growth, -100 = all killed); conditions: 10 µM unless noted
The panel holds about 83,000 compounds, 20% with a hit somewhere; the sample as a whole holds those more often.
Property name: growth (%)

- COC(=O)/C(CCC=C(C)C)=C1\[C@@H](OC(C)=O)C[C@@]2(C)[C@H]1CC(=O)[C@H]1[C@@]3(C)CC[C@H](NCc4ccccc4)[C@@H](C)[C@@H]3CC[C@@]12C: 82.9
- COc1ccc(C2c3ccc4ccccc4c3Oc3ncn(CCCn4ccnc4)c(=N)c32)cc1OC (centres undefined): 67.8
- Cc1ccc(N=NC2C(=O)N(c3ccc(Cl)cc3)N(c3ccc(Cl)cc3)C2=O)cc1: 100
- CCOC(=O)c1c2c(c(C)n1Cc1ccc(OC)cc1)-c1oncc1CC2: 79.5
- Cc1ccc(NC2=CC(=O)C(=O)c3ccccc32)c(C)c1: 48.8
- NC(CCc1nc2ccccc2c(=O)[nH]1)C(=O)O (centres undefined): 105
- O=S(=O)(c1ccc(NC(=S)NC23CC4CC(CC(C4)C2)C3)cc1)N1CCCCC1: 107
- CCOC(=O)c1c(C=O)nc2ccccc2c1/C=C/c1ccc(Cl)cc1: 90.9
- COc1cc(-c2c3c(cn2S(=O)(=O)c2ccccc2)-c2nc(N)sc2CC3)cc(OC)c1OC: -31.8

====

tested on: MOLT-4 leukemia; experiment: NCI-60 one-dose screen, 48 h; settings: 10 µM unless noted
About 83,000 compounds went through this panel and 20% of them were active in at least one assay; those are over-represented in the sample as a whole. The source made the active and inactive calls. The calls were made as follows: active = growth percent below 10; inactive = the rest.
Classes used: TRUE = active, FALSE = inactive

* CCN1C(=O)N(CC)C2Nn3c(s/c(=C4\C(=O)N(C(C)C)c5ccccc54)c3=O)=NC21 (stereo not given) | FALSE
* COc1ccc2[nH]c(O)c(N=NC(=O)c3oc4ccccc4c3C)c2c1 | FALSE
* CC(=S)NC(=O)C(=O)/C=C1/NC(=O)C(=O)S1 | FALSE
* COc1cc(C(=O)O/N=C(\N)Cc2cccc3ccccc23)cc(OC)c1OC | TRUE
* COc1ccc(-c2cn[nH]c2-c2cc(OC)c(OC)c(OC)c2)cc1OCc1ccccc1 | FALSE

====

System: SF-295 CNS
Test: NCI-60 one-dose screen, 48 h
Details: 10 µM unless noted
Method: Cells are grown in 96 well plates and exposed to the test compound for 48 hours. Compounds are tested at a single concentration, which is 10^-5 M for most compounds. The reported endpoint is percent growth (GI% or GIPRCNT), where numbers from 0 - 100% represent growth inhibition, and numbers from -100% - 0 represent cell death. For example, a value of 40 represents 60% growth inhibition. A value of 0 means no net growth occurred over the course of the experiment. […]
This is part of a sample that, as a whole, favours compounds with a hit. Of some 83,000 tested, about 20% had one in any assay. Calls of active or inactive are those of the source. How the source made its calls: active means growth percent below 10; inactive means the rest.
Classes used: true for active, false for inactive

* O=C1OC(c2ccccc2)(c2ccccc2)c2ccsc21 | false
* c1ccc2cc3c(Nc4ccc(N5CCOCC5)cc4)ccnc3cc2c1 | false
* COc1ccc(C2Nc3nc(OC)n(C)c(=O)c3N=C3c4ccccc4C(=O)C32)cc1 (centres undefined) | true
* COc1cc(NC(=O)CCSc2nc3ccccc3c(=O)n2Cc2ccccc2)cc(OC)c1OC | false
* COc1cc(NC(=O)CCSc2nc3ccccc3c(=O)n2CCc2ccccn2)cc(OC)c1OC | false
* O=C1CCC(N2C(=O)c3cccc(NCCCCCCOc4ccc(Nc5nccc(Nc6ccccc6)n5)cc4)c3C2=O)C(=O)N1 (centres undefined) | false
* CCCSC1=NC2C(N(CC)C(=O)N2CC)N1/N=C/C=C/c1ccccc1[N+](=O)[O-] (centres undefined) | false
* COc1cc(C2CC(c3ccc(Nc4nc(NCCO)nc(N5CCOCC5)n4)cc3)=NN2c2cc(Cl)cc(Cl)c2)cc(OC)c1OC (centres undefined) | false
* COc1ccc(CN2CCCC(C(=O)c3ccc(C(F)(F)F)cc3)C2)c(O)c1 (centres undefined) | true

====

tested on: SF-295 CNS; assay: NCI-60 one-dose screen, 48 h; settings: 10 µM unless noted
This is part of a sample that, as a whole, favours compounds with a hit. Of some 83,000 tested, about 20% had one in any assay. The source made the active and inactive calls. How the source made its calls: active means growth percent below 10; inactive means the rest.
Classes used: active, inactive

• O=C(Nc1ccc(F)cc1F)c1cc(I)ccc1O = active
• COc1ccc(OC)c(NC(=O)/C(C#N)=C/c2ccco2)c1 = inactive
• O=C1C(=O)c2c(ccc3ccccc23)-c2ccccc21 = inactive
• O=c1c2cccc(F)c2sc2c(N3CCNCC3)nc3ccccc3c12 = inactive
• O=C(CSc1ccc2nnc(-c3cccc(F)c3)n2n1)Nc1ccc2c(c1)OCO2 = inactive
• COc1ccc(-c2nsc3c2NC(=O)CC3c2ccc3c(c2)OCCO3)cc1 (stereo unspecified) = active
• Brc1ccc(Oc2ccc(Nc3ncnc4onc(-c5ccccc5)c34)cc2)cc1 = inactive
• CN1C(=O)N(C)C2C1NN=c1s/c(=C\c3ccc(Cl)cc3Cl)c(=O)n12 (stereo unspecified) = inactive
• N#C/C(=C\c1c(-c2ccccc2)[nH]c2ccccc12)C(=O)c1ccccc1 = inactive
• O=C(CN1C=NC2C(N3CCOCC3)=NC=NC21)c1cccc2ccccc12 (stereo unspecified) = inactive
• O=C(Cn1cc(COc2ncnc3c2cnn3-c2ccccc2)nn1)Nc1cccc2ccccc12 = inactive

====

system: SNB-75 CNS; experiment: NCI-60 one-dose screen, 48 h (100 = growth as untreated, 0 = no growth, -100 = all killed); details: 10 µM unless noted
Compounds without any hit were thinned out: in the full panel of roughly 83,000, 20% have a hit.
Outcome label depends on growth relative to 40%: at/above gives True, below gives False.

* O=S1(=O)N(Cc2ccccc2)[C@@H](Cc2ccccc2)[C@H](O)[C@H](O)[C@H](Cc2ccccc2)N1Cc1ccccc1 | False
* Cn1cc(-c2ccc3ncc(-c4ccc(CC(=O)Nc5cc(C(C)(C)C)no5)cc4)nc3c2)cn1 | True
* O=Cc1c(OCc2cnnn2CC(=O)Nc2ccc(Cl)cc2)ccc2ccccc12 | True
* CCCCCCCCCCCCCCn1cc(C2=C(c3coc4ccc(OC)cc34)C(=O)NC2=O)c2ccccc21 | True
* O=C(COc1cc(O)c2c(=O)cc(-c3ccccc3)oc2c1)Nc1ccccc1C(F)(F)F | False
* O=c1oc2ccc(I)cc2c(=O)n1-c1ccc(F)cc1F | False
* COc1cc(CNC(=O)Cc2ccccc2)ccc1OCc1cn(-c2ccc(F)cc2)nn1 | True
* CNCCNc1nc2ccccc2c2c(=O)c3cccc(OC)c3sc12 | False
* N#C/C(=C\c1c(-c2ccccc2)[nH]c2ccccc12)S(=O)(=O)c1ccccc1 | False

====

system: SNB-75 CNS; test: NCI-60 one-dose screen, 48 h; conditions: 10 µM unless noted
This is part of a sample that, as a whole, favours compounds with a hit. Of some 83,000 tested, about 20% had one in any assay. The source made the active and inactive calls. Rule for the calls: active = growth percent below 10; inactive = the rest.
Classes used: Yes for active, No for inactive

* COC(=O)C1(C)CCC[C@]2(C)[C@H]3C[C@H]4C(C(C)C)=C[C@]3(CC[C@@H]12)[C@H]1[C@@H]4[C@@H](OCC#CCN2CCOCC2)CC[C@@H]1OCC#CCN1CCOCC1 (some centres undefined) | No
* COc1cccc(C(=O)NC(c2ccc(C)cc2)c2cc(Cl)c3cccnc3c2O)c1 (centres undefined) | No
* COc1ccc(N(C)c2nc(N)nc3sc4c(c23)CCCC4)cc1 | No
* CNC(=O)c1cc(Oc2ccc(CC(=O)Nc3cc(C(C)(C)C)cn3C)cc2)ccn1 | No
* CN1CCN(Cc2ccc(C(=O)Nc3cncc(C#Cc4cnc(N)c5ccccc45)c3)cc2C(F)(F)F)CC1 | Yes
* Cc1c(-c2noc(-c3ccc([N+](=O)[O-])cc3)n2)no[n+]1[O-] | No
* COC(=O)c1c2c(c(C)[n+]([O-])c1C)C(=O)C(NCc1ccc(Br)cc1)=CC2=O | No
* NNC(=O)CNC(=O)Nc1n[nH]c(=S)s1 | No
* O=C(Nc1ccc(-c2nc3ccc(NC(=O)c4ccc(Cl)cc4)cc3[nH]2)cc1)c1ccc(Cl)cc1 | Yes

====

system: NCI-H23 lung; test: NCI-60 one-dose screen, 48 h; settings: 10 µM unless noted
This is part of a sample that, as a whole, favours compounds with a hit. Of some 83,000 tested, about 20% had one in any assay. Activity calls are given as the source filed them. Rule for the calls: active = growth percent below 10; inactive = the rest.
Classes used: active, inactive

• CCN1C(=O)N(c2ccccc2)C2NN=c3s/c(=C4\C(=O)N(C(C)C)c5ccccc54)c(=O)n3C21 (stereo unspecified) = inactive
• COc1cc2c(cc1OC)C(=O)C(CC1CCN(C(=O)Nc3ccc(C)cc3)CC1)C2 (stereo unspecified) = inactive
• O=C(Nc1ccc(I)cc1F)c1cc(F)ccc1O = active
• NNC(=O)CNC(=O)Nc1n[nH]c(=S)s1 = inactive
• CN1C(=O)N(C)C2(c3ccccc3)n3c(s/c(=C\c4ccccc4)c3=O)=NNC12c1ccccc1 (stereo unspecified) = inactive
• CCCCN1CCN(c2ccc3nc(-c4ccc5nc(-c6ccc(OCC)cc6)[nH]c5c4)[nH]c3c2)CC1 = inactive
• CNCCNc1nc2ccccc2c2c(=O)c3cc(OC)ccc3sc12 = inactive
• CCOC(=O)C1=C(C)N=c2s/c(=C\c3ccccc3O)c(=O)n2C1c1ccc(OC)c2ccccc12 (stereo unspecified) = inactive
• O=Cc1cc2ccccc2nc1Nc1nccs1 = inactive
• S=C1NC2(c3ccccc3)CCC(=S)N2c2ccccc21 (stereo unspecified) = inactive
• CCOC(=O)c1c(C=O)nc2ccccc2c1/C=C/c1ccc(Cl)cc1 = inactive
• CN(C)CCCNCc1ccc(-c2ccc(F)c(Cl)c2)o1 = inactive
• COc1cc2nc(-c3cccc4cccnc34)nc(NC3CCN(Cc4ccccc4)CC3)c2cc1OC = active
• CCOc1ccc2nc(C)cc(Nc3ccc(Br)cc3)c2c1 = inactive
• O=Cc1c(OCc2cnnn2CC(=O)Nc2ccc(Br)cc2)ccc2ccccc12 = inactive
• COc1cc(C(C)n2cc(-c3ccccc3)nn2)ccc1OC1CCCCC1 (stereo unspecified) = inactive
• O=C1c2ccccc2C(=O)c2c1ccc1[nH]c(CCl)nc21 = inactive
• COC(=O)c1c2c(c(C)[n+]([O-])c1C)C(=O)C=C(NCc1ccc(F)c(F)c1)C2=O = active
• COc1ccc(-c2nocc2-c2cccs2)cc1 = inactive
• O=c1oc2ccc(Br)cc2c(=O)n1-c1ccc(I)cc1F = active
• Cc1sc2ncnc(Sc3nc4ccccc4[nH]3)c2c1C = inactive
• O=C(Nc1ccc(I)cc1F)c1cc(Cl)ccc1O = active
• COc1cc(/C=C2\CN(C)C/C(=C\c3cc(CN4CCOCC4)c(O)c(OC)c3)C2=O)cc(CN2CCOCC2)c1O = inactive
• COC(=O)/C(CCC=C(C)C)=C1\[C@@H](OC(C)=O)C[C@@]2(C)[C@H]1C[C@@H](O)[C@H]1[C@@]3(C)CC[C@H](NCCO)[C@@H](C)[C@@H]3CC[C@@]12C = inactive
• O=C(Nc1ccc(N2CCNCC2)cc1)c1[nH]ncc1Nc1cc(C2CC2)ncn1 = inactive
• O=c1oc2ccc(F)cc2c(=O)n1-c1ccc(I)cc1F = active
• Cc1ccc(Cc2cnc(NC(=O)CN3C(=O)/C(=C\c4ccccc4)SC3=S)s2)cc1 = inactive
• Cc1ccc(NCCNCC(O)CO)c2c(=O)c3ccccc3sc12 (stereo unspecified) = inactive
• CC(=O)SC1CC(=O)C=C2CCC3C4CCC(=O)OC4(C)CCC3C21C (stereo unspecified) = inactive
• O=C(Nc1ccc(Cl)cc1F)c1cc(I)ccc1O = inactive
• CC(=O)c1ccc(NC(=O)Nc2ccc(S(=O)(=O)Nc3ccc(Cl)nn3)cc2)cc1 = inactive
• CCc1ccc(CNCC(O)c2ccccc2)cc1 (stereo unspecified) = inactive
• COc1ccc(C)c2sc(N(Cc3cccnc3)C(=O)c3ccc(C#N)cc3)nc12 = active
• C=C1C(=O)O[C@H]2[C@H]1CC/C(COC(=O)/C=C\C(=O)O)=C\CC[C@@]1(C)O[C@@H]21 = inactive
• Oc1[nH]c2ccccc2c1N=Nc1nnc2n1N=C(c1ccccc1)CS2 = inactive
• CCCCCCc1cc2cc(-c3nc4ccccc4[nH]3)c(=Nc3ccccc3C)oc2cc1O = inactive
• CC[C@]1(O)C[C@@H]2CN(CCc3c([nH]c4ccccc34)[C@@](C(=O)OC)(c3cc4c(cc3OC)N(C)[C@H]3[C@@](O)(C(=O)OC)[C@H](OC(=O)CCCBr)[C@]5(CC)C=CCN6CC[C@]43[C@@H]65)C2)C1 = inactive
• CN(C)c1ccc(N=Cc2ccc(N3CCOCC3)cc2)cc1 = inactive
• O=C(NCc1ccccc1)C1CN(c2ccc(Cl)cc2)N(c2ccc(Cl)cc2)C1=O (stereo unspecified) = inactive
• CN1C(=O)N(C)C2C1NN=c1s/c(=C\c3ccc(Cl)cc3Cl)c(=O)n12 (stereo unspecified) = inactive
• O=C(Nc1ccsc1C(=O)NC1CCCCC1)c1ccc(F)cc1 = inactive
